Source listed as paper PMC6019379.

- TESTED TARGET: ADAAD (Active DNA-dependent ATPase A domain) (Bos taurus, UniProt Q9TTA5, R815K)
- Construct: ATPase domain fragment of bovine SMARCAL1 (RecA-like domains 1 and 2), plasmid pCP101 (pET-14b, NdeI/XhoI), E. coli BL21(DE3), Ni-NTA then DEAE-sepharose; tag removal not mentioned
- ASSAY REMARKS: intrinsic tryptophan fluorescence titration (ex […] nm, em […] nm), one-site fit
pKd: −log10 of the molar value.
OBSERVATION TYPE: pKd

>  <MOLECULE>
Nc1ncnc2c1ncn2[C@@H]1O[C@H](COP(=O)(O)OP(=O)(O)OP(=O)(O)O)[C@@H](O)[C@H]1O [ATP]

>  <TESTED TARGET>
ADAAD (Active DNA-dependent ATPase A domain) (Bos taurus, UniProt Q9TTA5, R815K)

>  <OBSERVATION TYPE>
pKd

>  <TEST RESULT>
5.92

$$$$

====

- TESTED TARGET: ADAAD (Active DNA-dependent ATPase A domain) (Bos taurus, UniProt Q9TTA5, R815A)
- Construct: gene SMARCAL1; ATPase domain fragment of bovine SMARCAL1 (RecA-like domains 1 and 2), plasmid pCP101 (pET-14b, NdeI/XhoI), E. coli BL21(DE3), Ni-NTA then DEAE-sepharose; tag removal not mentioned
- Sequence (Q9TTA5 221-940 R815A limits assumed): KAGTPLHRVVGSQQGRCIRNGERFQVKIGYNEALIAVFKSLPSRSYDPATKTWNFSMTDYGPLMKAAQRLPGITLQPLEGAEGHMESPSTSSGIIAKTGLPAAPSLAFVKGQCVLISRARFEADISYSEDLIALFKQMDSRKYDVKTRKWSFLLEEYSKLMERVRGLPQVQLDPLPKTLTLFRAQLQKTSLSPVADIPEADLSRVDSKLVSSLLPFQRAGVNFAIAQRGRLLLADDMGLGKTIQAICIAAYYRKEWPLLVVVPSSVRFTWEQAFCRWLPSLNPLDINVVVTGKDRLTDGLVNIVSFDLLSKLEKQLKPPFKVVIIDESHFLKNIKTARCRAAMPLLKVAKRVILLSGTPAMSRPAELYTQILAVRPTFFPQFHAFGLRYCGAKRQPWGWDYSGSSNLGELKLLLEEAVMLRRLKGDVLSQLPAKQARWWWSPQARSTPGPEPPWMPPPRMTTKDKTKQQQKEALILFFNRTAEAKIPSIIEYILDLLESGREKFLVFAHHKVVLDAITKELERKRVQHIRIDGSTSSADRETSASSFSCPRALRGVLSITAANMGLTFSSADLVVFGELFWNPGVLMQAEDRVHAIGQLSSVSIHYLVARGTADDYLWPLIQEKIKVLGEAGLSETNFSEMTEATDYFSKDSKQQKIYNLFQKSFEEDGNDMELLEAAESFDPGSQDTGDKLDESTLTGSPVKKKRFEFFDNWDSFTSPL
- ASSAY REMARKS: intrinsic tryptophan fluorescence titration (ex […] nm, em […] nm), one-site fit
- Type: binding
pKd: −log10 of the molar value.
OBSERVATION TYPE: pKd

>  <SMI>
Nc1ncnc2c1ncn2[C@@H]1O[C@H](COP(=O)(O)OP(=O)(O)OP(=O)(O)O)[C@@H](O)[C@H]1O

>  <OBSERVATION TYPE>
pKd

>  <TEST RESULT>
5.92

$$$$
